The values you see were collected from patent US20240391984A1.

Record form. Attribute: Kd. Fill in for each entry.
# target: polyclonal IgG (Gammanorm, Octapharma, Sweden)
# test-method-notes: SPR (Biacore 8K+), variant amine-coupled to CM5, Gammanorm as analyte, 1:1 kinetic fit
Give bare numbers, in nM.

Guide cases for Kd, answers given:
[
  {
    "binder": "pAM137 (B3 domain of Protein L; pos 10 Y, pos 45 A, pos 60 Q) (designed binder) PKEEVTIKAYLIYADGKTQTAEFKGTFEEATAEAYRYADLLAKEAGKYTVDVADKGYTLQIKFAGKEKTPEE",
    "Kd (nM)": 18
  },
  {
    "binder": "pAM129 (B3 domain of Protein L; pos 10 Q, pos 45 A, pos 60 Y) (designed binder) PKEEVTIKAQLIYADGKTQTAEFKGTFEEATAEAYRYADLLAKEAGKYTVDVADKGYTLYIKFAGKEKTPEE",
    "Kd (nM)": 14
  },
  {
    "binder": "pAM115 (B3 domain of Protein L; pos 10 N, pos 45 A, pos 60 N) (designed binder) PKEEVTIKANLIYADGKTQTAEFKGTFEEATAEAYRYADLLAKEAGKYTVDVADKGYTLNIKFAGKEKTPEE",
    "Kd (nM)": 12
  },
  {
    "binder": "pAM132 (B3 domain of Protein L; pos 10 Y, pos 45 N, pos 60 N) (designed binder) PKEEVTIKAYLIYADGKTQTAEFKGTFEEATAEAYRYADLLAKENGKYTVDVADKGYTLNIKFAGKEKTPEE",
    "Kd (nM)": 15
  },
  {
    "binder": "pAM122 (B3 domain of Protein L; pos 10 N, pos 45 H, pos 60 Y) (designed binder) PKEEVTIKANLIYADGKTQTAEFKGTFEEATAEAYRYADLLAKEHGKYTVDVADKGYTLYIKFAGKEKTPEE",
    "Kd (nM)": 25
  },
  {
    "binder": "pAM136 (B3 domain of Protein L; pos 10 Y, pos 45 N, pos 60 Y) (designed binder) PKEEVTIKAYLIYADGKTQTAEFKGTFEEATAEAYRYADLLAKENGKYTVDVADKGYTLYIKFAGKEKTPEE",
    "Kd (nM)": 19
  }
]

Please supply Kd for each of the following items, keeping them in order.
1. pAM124 (B3 domain of Protein L; pos 10 Q, pos 45 A, pos 60 N) (designed binder) PKEEVTIKAQLIYADGKTQTAEFKGTFEEATAEAYRYADLLAKEAGKYTVDVADKGYTLNIKFAGKEKTPEE
2. pAM116 (B3 domain of Protein L; pos 10 N, pos 45 H, pos 60 N) (designed binder) PKEEVTIKANLIYADGKTQTAEFKGTFEEATAEAYRYADLLAKEHGKYTVDVADKGYTLNIKFAGKEKTPEE

[12, 14]

Please supply Kd for each of the following items, keeping them in order.
1. pAM114 (wt B3 domain of Protein L) (protein) PKEEVTIKANLIYADGKTQTAEFKGTFEEATAEAYRYADLLAKENGKYTVDVADKGYTLNIKFAGKEKTPEE
2. pAM139 (B3 domain of Protein L; pos 10 Y, pos 45 H, pos 60 Q) (designed binder) PKEEVTIKAYLIYADGKTQTAEFKGTFEEATAEAYRYADLLAKEHGKYTVDVADKGYTLQIKFAGKEKTPEE
3. pAM134 (B3 domain of Protein L; pos 10 Y, pos 45 H, pos 60 N) (designed binder) PKEEVTIKAYLIYADGKTQTAEFKGTFEEATAEAYRYADLLAKEHGKYTVDVADKGYTLNIKFAGKEKTPEE
4. pAM120 (B3 domain of Protein L; pos 10 N, pos 45 A, pos 60 Y) (designed binder) PKEEVTIKANLIYADGKTQTAEFKGTFEEATAEAYRYADLLAKEAGKYTVDVADKGYTLYIKFAGKEKTPEE
5. pAM138 (B3 domain of Protein L; pos 10 Y, pos 45 A, pos 60 Y) (designed binder) PKEEVTIKAYLIYADGKTQTAEFKGTFEEATAEAYRYADLLAKEAGKYTVDVADKGYTLYIKFAGKEKTPEE
6. pAM126 (B3 domain of Protein L; pos 10 Q, pos 45 N, pos 60 Q) (designed binder) PKEEVTIKAQLIYADGKTQTAEFKGTFEEATAEAYRYADLLAKENGKYTVDVADKGYTLQIKFAGKEKTPEE
7. pAM125 (B3 domain of Protein L; pos 10 Q, pos 45 H, pos 60 N) (designed binder) PKEEVTIKAQLIYADGKTQTAEFKGTFEEATAEAYRYADLLAKEHGKYTVDVADKGYTLNIKFAGKEKTPEE

1: 12; 2: 22; 3: 18; 4: 19; 5: 18; 6: 16; 7: 15

Please supply Kd for each of the following items, keeping them in order.
1. pAM117 (B3 domain of Protein L; pos 10 N, pos 45 N, pos 60 Q) (designed binder) PKEEVTIKANLIYADGKTQTAEFKGTFEEATAEAYRYADLLAKENGKYTVDVADKGYTLQIKFAGKEKTPEE
2. pAM128 (previously disclosed benchmarking Protein L ligand; B3 domain with pos 10 Q, pos 45 A, pos 60 Q) (designed binder) PKEEVTIKAQLIYADGKTQTAEFKGTFEEATAEAYRYADLLAKEAGKYTVDVADKGYTLQIKFAGKEKTPEE

18
17
